Target: human PRMT4 enzyme (Homo sapiens, UniProt Q86X55)
Sequence (Q86X55 1-608): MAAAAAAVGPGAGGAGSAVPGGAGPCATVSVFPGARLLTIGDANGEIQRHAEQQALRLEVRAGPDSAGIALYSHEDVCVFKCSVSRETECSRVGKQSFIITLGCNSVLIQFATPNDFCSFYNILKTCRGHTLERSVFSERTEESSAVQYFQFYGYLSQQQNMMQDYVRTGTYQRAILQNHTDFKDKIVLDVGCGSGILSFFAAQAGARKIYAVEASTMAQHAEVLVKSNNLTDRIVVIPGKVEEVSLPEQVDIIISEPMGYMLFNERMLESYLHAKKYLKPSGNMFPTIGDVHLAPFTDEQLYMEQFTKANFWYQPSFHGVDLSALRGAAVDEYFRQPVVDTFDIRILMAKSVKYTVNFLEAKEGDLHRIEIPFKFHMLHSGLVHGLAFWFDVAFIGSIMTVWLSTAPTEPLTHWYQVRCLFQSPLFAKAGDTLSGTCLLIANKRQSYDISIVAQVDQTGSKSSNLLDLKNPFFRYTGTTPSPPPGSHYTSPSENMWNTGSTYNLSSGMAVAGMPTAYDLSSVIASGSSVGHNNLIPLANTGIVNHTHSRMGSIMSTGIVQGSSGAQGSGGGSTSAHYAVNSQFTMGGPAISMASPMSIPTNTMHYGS
Assay: PRMT4 inhibition assay (radioactive [3H]SAM methyl transfer, filter binding)
Assay type: biochemical
Conditions: compound at 10µM; 60 nM [3H]SAM, 25 nM Histone H3 full length, 1 h at 22°C; read-out: PRMT4/CARM1 10µM, percent inhibition of the control enzyme activity
Experimental: The inhibitory effect of compounds on the methyltransferase activity of human PRMT was evaluated via the measurement of its capacity to transfer methyl groups in a radioactivity assay. […] For control basal measurements, the enzyme is omitted from the reaction mixture. […] The filters are dried then counted for radioactivity in a scintillation counter (Topcount, Packard) using a scintillation cocktail (Microscint 0, Packard). The results are expressed as a percent inhibition of the control enzyme activity. […]
Assignment: determine reported inhibition at 10 µM for the given compounds.
Give the number; % is assumed, so skip it.

Endpoint output: inhibition at 10 µM of Nc1nc(=O)n(CCOc2ccc(Br)cc2)cc1CNCC[C@H]1O[C@@H](n2cnc3c(N)ncnc32)[C@H](O)[C@@H]1O . Value?
43

Endpoint output: inhibition at 10 µM of COCn1cc(CN(CCC(N)C(=O)O)CC2OC(n3cnc4c(N)ncnc43)C(O)C2O)c(N)nc1=O (stereo not shown) . Value?
21

Endpoint output: inhibition at 10 µM of Nc1nc(=O)n(CCOc2ccccc2)cc1CNCCC1OC(n2cnc3c(N)ncnc32)C(O)C1O (stereo not shown) . Value?
35

Endpoint output: inhibition at 10 µM of COCn1cc(CN(CCC(N)C(=O)O)CCC2OC(n3cnc4c(N)ncnc43)C(O)C2O)c(N)nc1=O (stereo not shown) . Value?
54
